biological target: Calcium/calmodulin-dependent protein kinase type II subunit alpha (Homo sapiens) (UniProt Q9UQM7)
Sequence (Q9UQM7 whole entry): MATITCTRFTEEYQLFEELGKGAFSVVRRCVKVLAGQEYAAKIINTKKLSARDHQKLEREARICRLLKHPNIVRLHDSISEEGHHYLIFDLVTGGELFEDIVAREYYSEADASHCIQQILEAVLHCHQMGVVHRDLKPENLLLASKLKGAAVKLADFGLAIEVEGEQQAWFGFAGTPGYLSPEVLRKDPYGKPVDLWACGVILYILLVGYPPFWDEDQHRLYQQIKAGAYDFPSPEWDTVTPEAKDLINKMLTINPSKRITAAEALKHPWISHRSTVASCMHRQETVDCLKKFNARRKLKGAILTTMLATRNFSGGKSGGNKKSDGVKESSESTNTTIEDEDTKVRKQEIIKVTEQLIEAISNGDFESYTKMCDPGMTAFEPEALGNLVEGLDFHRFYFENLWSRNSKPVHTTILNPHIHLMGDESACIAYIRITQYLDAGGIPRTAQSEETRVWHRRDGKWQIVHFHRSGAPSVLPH
Binarize ΔTm at 0.9 °C; below is 1 (yes), at or above is 0 (no).

molecular-string: CCOc1cc2ncnc(Nc3cccc(Br)c3)c2cc1OCC
label-class: 1 (yes)
--
molecular-string: Nc1nccc(-c2c(-c3ccc(F)cc3)ncn2C2CCNCC2)n1
label-class: 1 (yes)
--
molecular-string: O=C1Nc2ccccc2/C1=C\c1ccc[nH]1
label-class: 0 (no)
--
molecular-string: Nc1cccc(-c2cc3c(Oc4cccc(O)c4)ncnc3[nH]2)c1
label-class: 1 (yes)
--
molecular-string: CCN1/C(=C/C(C)=O)Sc2ccc(OC)cc21
label-class: 1 (yes)
--
molecular-string: Cc1c2ccncc2c(C)c2c1[nH]c1ccccc12
label-class: 0 (no)
--
molecular-string: CC(C)(C)n1nc(-c2ccc(Cl)cc2)c2c(N)ncnc21
label-class: 1 (yes)
--
molecular-string: CC(C)(C)c1cc(C=C2C(=O)C=CC2=O)cc(C(C)(C)C)c1O
label-class: 1 (yes)
--
molecular-string: Cn1cc(C2=C(c3cn(CCCN)c4ccccc34)C(=O)NC2=O)c2ccccc21
label-class: 0 (no)
--
molecular-string: CN1CCc2[nH]c(=S)c(C#N)c(-c3cccs3)c2C1
label-class: 1 (yes)
